- TEST TARGET: Tyrosine-protein phosphatase non-receptor type 1 (Homo sapiens)
- Sequence (P18031 whole entry): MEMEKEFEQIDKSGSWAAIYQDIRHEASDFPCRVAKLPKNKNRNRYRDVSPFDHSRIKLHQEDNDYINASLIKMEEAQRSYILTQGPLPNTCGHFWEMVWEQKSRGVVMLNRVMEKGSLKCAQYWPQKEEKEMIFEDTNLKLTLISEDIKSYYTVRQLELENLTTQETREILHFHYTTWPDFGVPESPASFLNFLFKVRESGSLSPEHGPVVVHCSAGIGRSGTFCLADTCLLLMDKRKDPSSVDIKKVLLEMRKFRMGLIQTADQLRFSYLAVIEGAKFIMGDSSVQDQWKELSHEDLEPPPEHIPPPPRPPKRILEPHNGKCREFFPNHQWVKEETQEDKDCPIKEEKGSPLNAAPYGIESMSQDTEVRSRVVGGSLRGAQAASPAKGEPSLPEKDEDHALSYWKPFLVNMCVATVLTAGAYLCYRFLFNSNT
- ASSAY SUMMARY: Inhibition of human recombinant PTP1B using p-nitrophenyl phosphate as substrate after 30 mins
pIC50: −log10 of the molar value.
Classify as follows. Reported pIC50 greater than or equal to 5: yes (1). Reported pIC50 below: no (0).

**Query** Hi, just wondering whether COc1ccc([C@H]2COc3cc(O)cc(O)c3C2=O)cc1CC=C(C)C shows pIC50 of 5 or higher.
**Result** yes (1)

**Query** Lookup COC(c1c2c(c(O)c3c(=O)c(-c4ccc(O)cc4)coc13)C=CC(C)(C)O2)C(O)C(C)(C)O (stereo unspecified)
**Result** no (0)

**Query** Lookup CC(C)=CCc1cc2c(=O)c(-c3ccc(O)cc3O)coc2c(CC=C(C)C)c1O
**Result** no (0)

**Query** Lookup CC(C)=CCc1c2c(c(O)c3c(=O)c(-c4ccc(O)cc4)coc13)CC(C(C)(C)O)O2 (stereo unspecified)
**Result** no (0)
